- target: hMAO-A (Homo sapiens)
- Sequence (P21397 1-527): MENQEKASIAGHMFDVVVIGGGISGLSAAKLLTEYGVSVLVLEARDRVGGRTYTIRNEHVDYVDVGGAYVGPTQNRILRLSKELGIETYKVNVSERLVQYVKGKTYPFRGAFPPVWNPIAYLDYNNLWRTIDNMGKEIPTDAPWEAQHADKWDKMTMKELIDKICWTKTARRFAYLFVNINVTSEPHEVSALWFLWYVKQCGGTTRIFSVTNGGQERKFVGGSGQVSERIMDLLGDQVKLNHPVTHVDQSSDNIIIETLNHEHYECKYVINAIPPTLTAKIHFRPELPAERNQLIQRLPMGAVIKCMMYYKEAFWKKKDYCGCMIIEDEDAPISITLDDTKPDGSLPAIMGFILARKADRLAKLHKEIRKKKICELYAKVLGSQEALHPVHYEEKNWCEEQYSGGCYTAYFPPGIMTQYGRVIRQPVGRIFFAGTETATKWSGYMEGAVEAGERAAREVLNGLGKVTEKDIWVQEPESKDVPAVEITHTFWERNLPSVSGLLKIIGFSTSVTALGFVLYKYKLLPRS
- protocol: Inhibition of recombinant hMAO-A, kynuramine substrate, continuous absorbance method
pIC50: −log10 of the molar value.
Returns one of condition met or condition not met; condition met when pIC50 is >= 5.

mol	assigned-label
O=C(Cn1nc(N2CCC(Cc3ccccc3)CC2)ccc1=O)NN=Cc1cccc(Br)c1	condition not met
COc1ccc(C=NNC(=O)Cn2nc(N3CCC(Cc4ccccc4)CC3)ccc2=O)cc1	condition met
COc1cccc(C=NNC(=O)Cn2nc(N3CCC(Cc4ccccc4)CC3)ccc2=O)c1	condition met
O=C(Cn1nc(N2CCC(Cc3ccccc3)CC2)ccc1=O)NN=Cc1cccc(Cl)c1	condition met
Cc1cccc(C=NNC(=O)Cn2nc(N3CCC(Cc4ccccc4)CC3)ccc2=O)c1	condition met
O=C(Cn1nc(N2CCC(Cc3ccccc3)CC2)ccc1=O)NN=Cc1ccc(Cl)cc1	condition met

###

- target: MAO-B (Homo sapiens, UniProt P27338)
- Sequence (P27338 1-520): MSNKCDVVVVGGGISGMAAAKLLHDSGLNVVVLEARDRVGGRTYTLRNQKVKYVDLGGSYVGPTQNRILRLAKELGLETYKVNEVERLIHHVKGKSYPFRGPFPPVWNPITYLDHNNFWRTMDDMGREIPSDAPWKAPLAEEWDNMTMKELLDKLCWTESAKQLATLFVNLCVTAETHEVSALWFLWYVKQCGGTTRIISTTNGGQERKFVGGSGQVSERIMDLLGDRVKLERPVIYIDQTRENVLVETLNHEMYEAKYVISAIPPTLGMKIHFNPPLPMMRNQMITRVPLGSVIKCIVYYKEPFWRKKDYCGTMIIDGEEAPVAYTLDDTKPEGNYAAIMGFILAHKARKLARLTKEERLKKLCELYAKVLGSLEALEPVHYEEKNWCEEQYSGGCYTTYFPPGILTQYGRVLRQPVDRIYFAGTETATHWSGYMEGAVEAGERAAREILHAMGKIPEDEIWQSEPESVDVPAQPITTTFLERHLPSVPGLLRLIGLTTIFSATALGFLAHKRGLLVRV
- protocol: biochemical
- condition-details: read-out: Residual Activity at 10 µM (%) MAO-B

compound	remaining activity at 10 µM / %
O=C(Cn1nc(N2CCC(Cc3ccccc3)CC2)ccc1=O)NN=Cc1ccc(Cl)cc1	26.7
Cc1cccc(C=NNC(=O)Cn2nc(N3CCC(Cc4ccccc4)CC3)ccc2=O)c1	9.31
O=C(Cn1nc(N2CCC(Cc3ccccc3)CC2)ccc1=O)NN=Cc1cccc(Cl)c1	-24.6
C[C@H](NCc1ccc(OCc2cccc(F)c2)cc1)C(N)=O [Safinamide, reference compound]	-15.6
Cc1ccccc1C=NNC(=O)Cn1nc(N2CCC(Cc3ccccc3)CC2)ccc1=O	32.9
O=C(Cn1nc(N2CCC(Cc3ccccc3)CC2)ccc1=O)NN=Cc1ccccc1	36.5
CN(C)c1ccc(C=NNC(=O)Cn2nc(N3CCC(Cc4ccccc4)CC3)ccc2=O)cc1	37.6
O=C(Cn1nc(N2CCC(Cc3ccccc3)CC2)ccc1=O)NN=Cc1ccc(F)cc1	31.9

###

Items are presented alongside their recorded Ki.
- target: MAO-B (Homo sapiens)
- protocol: MAO-B inhibition kinetics (Lineweaver-Burk and secondary plots)
- Format: biochemical
- Set-up: purchased Sigma-Aldrich
- condition-details: secondary plot of LB slopes; benzylamine substrate

compound	unit-string	Ki
O=C(Cn1nc(N2CCC(Cc3ccccc3)CC2)ccc1=O)NN=Cc1cccc(Cl)c1 [Compound S5]	nM	155
N#Cc1ccccc1C=NNC(=O)Cn1nc(N2CCC(Cc3ccccc3)CC2)ccc1=O [Compound S16]	nM	721

###

- target: UniProtKB P21397
- protocol: Inhibition of recombinant hMAO-A, kynuramine substrate, continuous absorbance method
pIC50: −log10 of the molar value.

compound	pIC50
O=C(Cn1nc(N2CCC(Cc3ccccc3)CC2)ccc1=O)NN=Cc1cccc(F)c1 [Compound S7]	5.32
O=C(Cn1nc(N2CCC(Cc3ccccc3)CC2)ccc1=O)NN=Cc1ccccc1 [Compound S1]	4.78
N#Cc1ccccc1C=NNC(=O)Cn1nc(N2CCC(Cc3ccccc3)CC2)ccc1=O [Compound S16]	5.21
O=C(Cn1nc(N2CCC(Cc3ccccc3)CC2)ccc1=O)NN=Cc1ccccc1Br [Compound S3]	5.38
Cc1ccccc1C=NNC(=O)Cn1nc(N2CCC(Cc3ccccc3)CC2)ccc1=O [Compound S9]	5.35
CN(C)c1ccc(C=NNC(=O)Cn2nc(N3CCC(Cc4ccccc4)CC3)ccc2=O)cc1 [Compound S13]	5.25

###

- protocol: PAMPA for blood-brain barrier permeation
- Assay type: in vitro ADME
- condition-details: PAMPA-BBB, pH 7.4; read-out: Experimental Pe
observed-property: Papp (×10⁻⁶ cm/s)

mol	observed-property	measured
O=C(Cn1nc(N2CCC(Cc3ccccc3)CC2)ccc1=O)NN=Cc1cccc(Cl)c1	Papp	5.75
N#Cc1ccccc1C=NNC(=O)Cn1nc(N2CCC(Cc3ccccc3)CC2)ccc1=O	Papp	3.78

###

- target: MAO-B (Homo sapiens, UniProt P27338)
- Sequence (P27338 1-520): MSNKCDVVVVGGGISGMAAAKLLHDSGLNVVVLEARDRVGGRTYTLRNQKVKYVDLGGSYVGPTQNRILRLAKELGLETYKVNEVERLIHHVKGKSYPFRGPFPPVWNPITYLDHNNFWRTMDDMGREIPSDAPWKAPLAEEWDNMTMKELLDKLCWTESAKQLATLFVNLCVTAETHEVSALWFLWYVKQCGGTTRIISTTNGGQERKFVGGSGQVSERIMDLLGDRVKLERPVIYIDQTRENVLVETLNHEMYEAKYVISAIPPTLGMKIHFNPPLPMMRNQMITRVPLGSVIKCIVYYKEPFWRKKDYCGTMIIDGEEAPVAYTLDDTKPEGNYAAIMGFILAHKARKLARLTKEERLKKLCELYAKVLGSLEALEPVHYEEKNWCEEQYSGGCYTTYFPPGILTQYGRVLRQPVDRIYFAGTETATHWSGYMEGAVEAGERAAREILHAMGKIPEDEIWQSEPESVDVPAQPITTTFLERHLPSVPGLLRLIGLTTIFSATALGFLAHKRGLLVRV
- protocol: biochemical
pIC50: −log10 of the molar value.

mol	pIC50
N#Cc1ccccc1C=NNC(=O)Cn1nc(N2CCC(Cc3ccccc3)CC2)ccc1=O	6.01
Cc1ccccc1C=NNC(=O)Cn1nc(N2CCC(Cc3ccccc3)CC2)ccc1=O	5.14
CN(C)c1ccc(C=NNC(=O)Cn2nc(N3CCC(Cc4ccccc4)CC3)ccc2=O)cc1	5.19
Cc1cccc(C=NNC(=O)Cn2nc(N3CCC(Cc4ccccc4)CC3)ccc2=O)c1	5.45
O=C(Cn1nc(N2CCC(Cc3ccccc3)CC2)ccc1=O)NN=Cc1cccc(Cl)c1	6.69
O=C(Cn1nc(N2CCC(Cc3ccccc3)CC2)ccc1=O)NN=Cc1cccc(Br)c1	5.21

###

- target: MAO-B (Homo sapiens, UniProt P27338)
- Sequence (P27338 1-520): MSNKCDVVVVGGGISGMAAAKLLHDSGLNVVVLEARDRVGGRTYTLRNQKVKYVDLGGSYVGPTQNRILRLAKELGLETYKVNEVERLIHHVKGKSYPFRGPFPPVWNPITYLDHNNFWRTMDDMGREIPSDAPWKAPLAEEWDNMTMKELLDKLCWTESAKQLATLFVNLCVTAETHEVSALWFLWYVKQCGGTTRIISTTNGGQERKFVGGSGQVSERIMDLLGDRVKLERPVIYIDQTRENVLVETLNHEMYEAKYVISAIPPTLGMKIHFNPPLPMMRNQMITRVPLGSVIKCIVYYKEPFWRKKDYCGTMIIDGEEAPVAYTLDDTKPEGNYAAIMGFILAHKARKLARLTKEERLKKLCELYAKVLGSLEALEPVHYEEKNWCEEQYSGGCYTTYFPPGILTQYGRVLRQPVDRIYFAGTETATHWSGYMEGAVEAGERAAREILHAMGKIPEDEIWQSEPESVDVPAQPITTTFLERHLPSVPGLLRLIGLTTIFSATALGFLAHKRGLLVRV
- protocol: biochemical
- condition-details: read-out: Residual Activity at 10 µM (%) MAO-B
Lab note: cut-off is 10%. Strictly less in remaining activity at 10 µM is satisfied. Exactly 10% or more is not satisfied.

mol	assigned-label
O=C(Cn1nc(N2CCC(Cc3ccccc3)CC2)ccc1=O)NN=Cc1cccc(F)c1	satisfied
O=C(Cn1nc(N2CCC(Cc3ccccc3)CC2)ccc1=O)NN=Cc1cccc(Br)c1	not satisfied
COc1cccc(C=NNC(=O)Cn2nc(N3CCC(Cc4ccccc4)CC3)ccc2=O)c1	not satisfied
O=C(Cn1nc(N2CCC(Cc3ccccc3)CC2)ccc1=O)NN=Cc1ccccc1Br	not satisfied
O=C(Cn1nc(N2CCC(Cc3ccccc3)CC2)ccc1=O)NN=Cc1ccc(Br)cc1	not satisfied
N#Cc1ccccc1C=NNC(=O)Cn1nc(N2CCC(Cc3ccccc3)CC2)ccc1=O	satisfied
COc1ccc(C=NNC(=O)Cn2nc(N3CCC(Cc4ccccc4)CC3)ccc2=O)cc1	not satisfied
